Each recorded value in this set is attributed to PubChem BioAssay (NCI).

Test system: RXF 393 renal
Test: NCI-60 one-dose screen, 48 h (100 = growth as untreated, 0 = no growth, -100 = all killed)
Details: 10 µM unless noted
About 83,000 compounds went through this panel and 20% of them were active in at least one assay; those are over-represented in the sample as a whole.
Overview of recorded growth for various compounds
Entry rule: numbers only, all in %.

Smiles notation | Target | Uom | Observed measurement
Nc1nc(N)c2nc3c(nc2n1)CCCCCCCCCC3 | RXF 393 renal | % | 80
Cc1ccc(-c2nc([P+](c3ccccc3)(c3ccccc3)c3ccccc3)c(N3C[C@H]4C[C@H](C3)c3cccc(=O)n3C4)o2)cc1 | RXF 393 renal | % | 79.8

Please examine the following record next.
Entry under test: Cn1cc(-c2csc(-c3cn(C(=O)OC(C)(C)C)c4ccccc34)n2)c2cccnc21 . Its growth was 80.1

###

System: LOX IMVI melanoma
Test: NCI-60 one-dose screen, 48 h
Conditions: 10 µM unless noted
The panel holds about 83,000 compounds, 20% with a hit somewhere; the sample as a whole holds those more often. The source made the active and inactive calls. Rule for the calls: active = growth percent below 10; inactive = the rest.
Outcome (select one): true (1) = active, false (0) = inactive

Answered cases to consult:
Molecule | Class label
OCCNc1nc(Nc2ccc(Cl)c(Cl)c2)nc2ccccc12 | false (0)
Oc1cccc2ccc(N/N=C/c3cc(CN4CCCCC4)c(O)c4ncccc34)nc12 | true (1)
Cc1ccncc1C(=O)O | false (0)

input: Just curious, what result did O=S(=O)(NCCNc1cc(-c2cn(-c3ccccc3)nc2-c2cccc(O)c2)ccn1)c1ccc(Br)cc1 get here?
output: false (0)

input: // outcome(item) with item = C=C1C(=O)O[C@H]2[C@H]1CC/C(COC(=O)NCCc1c[nH]c3ccccc13)=C\CC[C@@]1(C)O[C@@H]21
output: true (1)

input: Just curious, what result did c1cnc2[nH]cc(-c3csc(-c4cn(CCCN5CCCCC5)c5ccccc45)n3)c2c1 get here?
output: true (1)

input: Hi, do you know how Nc1c(C(=O)Nc2cccc(Cl)c2)sc2ncc(Cl)cc12 came out in this test?
output: false (0)

input: Hey, what did the test say about CCN1CCN(c2nc(C)cc(N(CCCNc3ccnc4cc(Cl)ccc34)Cc3ccco3)n2)CC1 ?
output: true (1)

input: Dear colleague, could you share the recorded outcome for Cn1cc(-c2csc(-c3cn(CCCN4CCCCC4)c4ccccc34)n2)c2cccnc21 when you have a moment?
output: true (1)

input: Field: outcome | Entry: CCCCCCCC(=O)SCC/C=C/[C@@H]1CC(=O)NCc2cccc(n2)CN(Cc2ccc3ccccc3c2)CC(=O)N[C@@H](C(C)C)C(=O)O1
output: true (1)

input: Called result for COC(=O)[C@@H]1[C@H]2C[C@H]3c4[nH]c5cc(OC)ccc5c4CCN3C[C@@H]2C[C@H](OC(=O)/C=C/c2ccnc(OC)c2)[C@H]1OC
output: false (0)

input: Tell me the recorded outcome of this test for CC(C)=CCC/C(C)=C/CC/C(C)=C/CC/C(C)=C/CSC[C@H](NC(=O)CCCCCN1CCN(C)CC1)C(=O)NC1CCCCC1 .
output: false (0)

input: Check the results log: what was the call for c1ccc(C2Cc3ccccc3C2=NC2CCCCC2)cc1 (centres undefined) ?
output: false (0)

###

// reported growth per item
Tested on: 786-0 renal
Assay: NCI-60 one-dose screen, 48 h (100 = growth as untreated, 0 = no growth, -100 = all killed)
Conditions: 10 µM unless noted
About 83,000 compounds went through this panel and 20% of them were active in at least one assay; those are over-represented in the sample as a whole. The source made the active and inactive calls. How the source made its calls: active means growth percent below 10; inactive means the rest.

Examples from the recorded data:
Compound | Observed measurement
COC(=O)CCCCCn1c2ccccc2c2c3c(c4c5ccccc5[nH]c4c21)C(=O)N(O)C3=O | 76.6% (inactive)
NCCn1cc(-c2nc(-c3c[nH]c4ncccc34)cs2)c2cc(F)ccc21 | 87.5% (inactive)
Nc1nc2c(c(=O)[nH]1)C(c1ccc3c(c1)OCO3)C=C(C(=O)O)N2 (stereo not drawn) | 98.3% (inactive)
Cc1cc(N(CCCNc2ccnc3cc(Cl)ccc23)Cc2ccco2)nc(N2CCN(C)CC2)n1 | 59% (inactive)
Nc1c(C(=O)Nc2cccc(Br)c2)sc2nc3c(cc12)C(=O)CCC3 | 51.8% (inactive)

GET /value?item= CCc1nnc(NC(=O)c2ccoc2COc2ccccc2)s1 &field=growth returns 72.2% (inactive)

Looking up CC[C@]12C=CCN3CC[C@@]4(c5cc([C@H]6CCC(=O)N6)c(OC)cc5N(C)[C@H]4[C@@](O)(C(=O)OC)[C@@H]1OC(C)=O)[C@@H]32 , I found its growth recorded as 104% [2.5 µM] (inactive)

// growth value for CCN1CCN(C(=O)[C@]23CC[C@@H](C)[C@H](C)[C@H]2C2=CC[C@@H]4[C@@]5(C)C/C(=C/c6cccc(OC)c6OC)C(=O)C(C)(C)[C@@H]5CC[C@@]4(C)[C@]2(C)CC3)CC1 : 49.7% (inactive)
